Reported pIC50 values are given for each entry in this list.
Test system: Staphylococcus aureus
assay-explanation: Inhibition of MepA-mediated efflux in Staphylococcus aureus K2886
Format: functional, organism-based
pIC50 field: float, defined as -log10 of concentration (mol/L).

                                   molecule  assay_value
0  Fc1ccc([C@@H]2CCNC[C@H]2/C=C/c2cc(Br)ccc2Cl)cc1         4.70

Notebook: pull reported pIC50 for Staphylococcus aureus, entry `Fc1ccc([C@@H]2CCNC[C@H]2COc2cc(Br)ccc2Cl)cc1`
4.89

---

Reported MIC values are given for each entry in this list.
System: Staphylococcus aureus
assay-explanation: Antimicrobial activity against Staphylococcus aureus K2886 over expressing MepA efflux pump
Assay type: functional

Completed entries (count: 3):
>>> print(df.to_string())
                                   molecule  assay_value
0  Fc1ccc([C@@H]2CCNC[C@H]2/C=C/c2cc(Br)ccc2Cl)cc1     25 µg/mL
1           Clc1ccc(Br)cc1/C=C/[C@H]1CCCNC1     50 µg/mL
2  Fc1ccc([C@@H]2CCNC[C@H]2COc2cc(Br)ccc2Cl)cc1   6.25 µg/mL

Notebook: pull reported MIC for Staphylococcus aureus, entry `Clc1ccc(Br)cc1OC[C@H]1CCCNC1`
> 100 µg/mL

---

Reported IC50 values are given for each entry in this list.
Test system: Staphylococcus aureus
assay-explanation: Inhibition of MepA-mediated efflux in Staphylococcus aureus K2886
Assay type: functional, organism-based

>>> print(df.to_string())
                          compound  assay_value
0  Clc1ccc(Br)cc1/C=C/[C@H]1CCCNC1      < 10 µM

Please report the recorded IC50 for Fc1ccc([C@@H]2CCNC[C@H]2COc2ccc3c(c2)OCO3)cc1 [PAROXETINE] .
< 10 µM

Request: `Clc1ccc(Br)cc1OC[C@H]1CCCNC1`
< 10 µM

Data provenance: ChEMBL document CHEMBL1141490
